Attribution: patent US20130005728A1

target: human prostaglandin D2 receptor (DP) (DP1) (Homo sapiens, UniProt Q13258); construct: endogenous in cells; host or cells: human platelets in platelet-rich plasma from donor blood; experiment: Antagonist activity on BW245C-induced cAMP accumulation in human platelet rich plasma (hPRP) by HTRF cAMP assay; assay type: cell-based; settings: inhibition of BW245C (25 nM)-induced cAMP accumulation in human platelet rich plasma; read-out: hPRP IC50
Sequence (Q13258 whole entry): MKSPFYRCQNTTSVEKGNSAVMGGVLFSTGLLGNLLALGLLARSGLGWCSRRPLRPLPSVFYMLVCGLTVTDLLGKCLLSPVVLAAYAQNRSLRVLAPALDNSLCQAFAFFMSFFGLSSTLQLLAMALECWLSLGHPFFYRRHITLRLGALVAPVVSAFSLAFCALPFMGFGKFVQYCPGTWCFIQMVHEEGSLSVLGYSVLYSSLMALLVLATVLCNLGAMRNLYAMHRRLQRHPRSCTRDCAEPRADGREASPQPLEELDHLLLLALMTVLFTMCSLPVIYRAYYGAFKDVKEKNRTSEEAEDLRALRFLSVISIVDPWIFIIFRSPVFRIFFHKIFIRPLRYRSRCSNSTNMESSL
Structures can show the parent of a compound that is named as a salt.
Result Type: IC50 (nM)
Return type: number; implicit unit nM.

Looking for the measured IC50 of COc1nc(NCCc2ccc(OC(F)(F)F)cc2)cc(N2CCC(C(=O)O)C2)n1 (stereo not drawn) [Example 9] , can you help?
575

Looking for the measured IC50 of COc1nc(NCCc2ccc(OC(F)(F)F)cc2)cc(N2C[C@@H](C(=O)O)[C@H](C(C)C)C2)n1 [Example 8] , can you help?
376

Looking for the measured IC50 of COc1nc(NCCc2ccc(OC(F)(F)F)cc2)cc(N2C[C@@H](C(=O)O)[C@H](c3ccccc3OC)C2)n1 (racemic) [Example 15] , can you help?
436

Looking for the measured IC50 of COc1nc(NCCc2ccc(OC(F)(F)F)cc2)cc(N2CCN(c3ccccc3)CC2)n1 [Example 13] , can you help?
397

Looking for the measured IC50 of COc1nc(NCCc2ccc(OC(F)(F)F)cc2)cc(N2CCCCC2CC(=O)O)n1 (stereo not drawn) [Example 4, trifluoroacetate] , can you help?
32

Looking for the measured IC50 of COc1nc(NCCc2ccc(OC(F)(F)F)cc2)cc(N2CC[C@H](CC(=O)O)C2)n1 [Example 14] , can you help?
713

###

molecular target: human prostaglandin D2 receptor (DP) (DP1) (Homo sapiens, UniProt Q13258); construct: endogenous in cells; host or cells: human platelets in platelet-rich plasma from donor blood; assay: Antagonist activity on BW245C-induced cAMP accumulation in human platelet rich plasma (hPRP) by HTRF cAMP assay; type: cell-based; settings: inhibition of BW245C (25 nM)-induced cAMP accumulation in human platelet rich plasma; read-out: hPRP IC50
Structures can show the parent of a compound that is named as a salt.
Could you please mark Condition met for values of IC50 below 400 nM and Condition not met for values at or above it?

These recorded examples may help you get a feel for the data.
Compound	Target Or System	Discrete Label
COc1nc(NCCc2ccc(OC(F)(F)F)cc2)cc(N2CCN(CC(=O)O)CC2)n1 [Example 2, tristrifluoroacetate]	human prostaglandin D2 receptor (DP) (DP1) (Homo sapiens, UniProt Q13258)	Condition met
CCOC(=O)N1CCN(c2cc(NCCc3ccc(OC(F)(F)F)cc3)nc(OC)n2)CC1	human prostaglandin D2 receptor (DP) (DP1) (Homo sapiens, UniProt Q13258)	Condition not met
COc1nc(NCCc2ccc(OC(F)(F)F)cc2)cc(N2CCc3ccccc3C2)n1 [Example 12, trifluoroacetic acid salt]	human prostaglandin D2 receptor (DP) (DP1) (Homo sapiens, UniProt Q13258)	Condition not met
COc1nc(NCCc2ccc(OC(F)(F)F)cc2)cc(N2CCOC(C(=O)O)C2)n1 (stereo not shown) [Example 1, trifluoroacetate]	human prostaglandin D2 receptor (DP) (DP1) (Homo sapiens, UniProt Q13258)	Condition met
COc1nc(NCCc2ccc(OC(F)(F)F)cc2)cc(N2CCC(C)(C(=O)O)C2)n1 (stereo not shown)	human prostaglandin D2 receptor (DP) (DP1) (Homo sapiens, UniProt Q13258)	Condition met

Is the reported IC50 for `COc1nc(NCCc2ccc(OC(F)(F)F)cc2)cc(N2C[C@H](C(=O)O)[C@@H](c3ccccc3)C2)n1` strictly below 400 nM?
Condition met
